// values below are reported inhibition
# TARGET ENTITY: Phospholipase A2 group V (Homo sapiens)
# Sequence (whole entry): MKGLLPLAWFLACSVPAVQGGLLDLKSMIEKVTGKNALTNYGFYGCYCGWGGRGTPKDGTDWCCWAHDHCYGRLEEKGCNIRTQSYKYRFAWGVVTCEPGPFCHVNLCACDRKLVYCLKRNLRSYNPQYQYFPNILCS
# PROTOCOL NOTES: Inhibition of human calcium-independent group-5 sPLA2 using Triton-X-100/PAPC/arachidonyl-1-14C PAPC substrate mixed micelles at 0.091 mole_fraction by modified dole assay relative to control
# COND: in the assay text read “group-5 sPLA2” for “calcium-independent group-5 sPLA2”

- STRUCTURE SMILES STRING: "COc1ccc(CCCCC(=O)C(=O)N[C@H](C(=O)NCC(=O)OC(C)(C)C)C(C)C)cc1"
  inhibition / %: 47.1
- STRUCTURE SMILES STRING: "CCCC[C@H](NC(=O)C(=O)CCCCc1ccc(OC)cc1)C(=O)NCCCC(=O)OC(C)(C)C"
  inhibition / %: 44.8
- STRUCTURE SMILES STRING: "COc1ccc(CCCCC(=O)C(=O)N[C@@H](CC(C)C)C(=O)NCC(=O)OC(C)(C)C)cc1"
  inhibition / %: 40.8
- STRUCTURE SMILES STRING: "CCCC[C@H](NC(=O)C(=O)CCCCc1ccc(OC)cc1)C(=O)NCCCC(=O)OCc1ccccc1"
  inhibition / %: 27.7
- STRUCTURE SMILES STRING: "CCCC[C@H](NC(=O)C(=O)CCCCc1ccc(OC)cc1)C(=O)N[C@H](C)C(=O)OC(C)(C)C"
  inhibition / %: 49.9
- STRUCTURE SMILES STRING: "CCCC[C@H](NC(=O)C(=O)CCCCc1ccc(OC)cc1)C(=O)OC(C)(C)C"
  inhibition / %: 60.6
- STRUCTURE SMILES STRING: "CCCC[C@H](NC(=O)C(=O)CCCCc1ccc2ccccc2c1)C(=O)NCC(=O)OC(C)(C)C"
  inhibition / %: 44.8
- STRUCTURE SMILES STRING: "CCCC[C@@H](COCC(=O)OC(C)(C)C)NC(=O)C(=O)CCCCc1ccc2ccccc2c1"
  inhibition / %: 63.9
- STRUCTURE SMILES STRING: "CCCC[C@H](NC(=O)C(=O)CCCCc1ccccc1)C(=O)NCC(=O)OC(C)(C)C"
  inhibition / %: 43.4
- STRUCTURE SMILES STRING: "CCCC[C@H](NC(=O)C(=O)CCCCc1ccc(OC)cc1)C(=O)N[C@@H](C)C(=O)OC(C)(C)C"
  inhibition / %: 46.6
- STRUCTURE SMILES STRING: "CCCC[C@H](NC(=O)C(=O)CCCCc1ccc(OC)cc1)C(N)=O"
  inhibition / %: 31.1
- STRUCTURE SMILES STRING: "CC[C@H](C)[C@H](NC(=O)C(=O)CCCCc1ccc(OC)cc1)C(=O)NCC(=O)OC(C)(C)C"
  inhibition / %: 48.2
- STRUCTURE SMILES STRING: "CCCC[C@@H](NC(=O)C(=O)CCCCc1ccc(OC)cc1)C(=O)NCC(=O)OC(C)(C)C"
  inhibition / %: 39.3

These entries and their values trace back to ChEMBL document CHEMBL3875208.
